test system: T-47D breast; test: NCI tumour cell line growth inhibition, 48 h
Reported TGI values are given for each entry in this list.
reported_endpoint: TGI (µM)

1. CN1CCN(CCCCCN=c2cc3c(=O)n(CCCCCN4CCN(C)CC4)c(=O)c4c(NCCCCCN5CCN(C)CC5)cc5c(O)n(CCCCCN6CCN(C)CC6)c(=O)c2c5c4-3)CC1 :: 25.4
2. COc1ccc(Nc2ccnc(N3CCN(c4ccnc5cc(Cl)ccc45)CC3)n2)cc1 :: 6.99
3. Cc1[nH]nc(-c2ccon2)c1N=O :: 60.5

====

tested on: UO-31 renal; experiment: NCI tumour cell line growth inhibition, 48 h
Reported TGI values are given for each entry in this list.
reported_endpoint: TGI

1) c1ccc2c(c1)CCc1c-2n[nH]c1-c1[nH]nc2c1CCc1ccccc1-2 :: > 100 µM
2) Cc1cc(C)c(C2CNCc3cc4c(cc32)CNCC4c2c(C)cc(C)cc2C)c(C)c1 (stereo not drawn) :: 5.56 µg/mL
3) N#CCN1C(=O)c2cc([N+](=O)[O-])cc3cc([N+](=O)[O-])cc(c23)C1=O :: 32 µM
4) O=c1[nH]c(Nc2nc3ccccc3[nH]2)nc(O)c1Cc1ccccc1 :: > 100 µM
5) CCOC(=O)c1c[nH]c2ccc3c(c2c1=O)S(=O)(=O)CC3 (tested in a mixture with another compound) :: > 100 µM
6) Clc1ccc2oc(CCc3ccccc3)nc2c1 :: > 100 µM
7) COc1cccc(C2c3cc4c(cc3OC3COC(=O)C32)OCO4)c1OC (stereo not drawn) :: > 100 µM
8) C1CSCCSCCCSCCSCCCSCCSCCCSCCSC1 :: > 100 µM
9) COc1ccc2c(c1)C(=O)c1c-2c(OCCN(C)C)nc2ccccc12 :: 2.76 µM
10) Oc1cc(-n2cccn2)c(O)cc1-n1cccn1 :: 54.2 µM
11) COC(=O)Cc1c(-c2c(CC(=O)OC)c3ccccc3n2C2OC(COC(C)=O)C(OC(C)=O)C(OC(C)=O)C2OC(C)=O)[nH]c2ccccc12 (stereo not drawn) :: > 100 µM
12) CC1CC(C#N)=C2NCCN2C1=O (stereo not drawn) :: > 100 µM
13) C=CCOc1ccc(C2C(C(=O)OC)C(=O)CC(O)(c3ccccc3)C2C(=O)OC)cc1OC (stereo not drawn) :: 61.8 µM
14) CCCCCCCCCCCC[N+](CCCCCCCCCCCC)=C1SCCS1 :: 26.2 µM
15) OC(c1cccnc1Cl)c1nc2ccccc2c2ccnc(Cl)c12 (stereo not drawn) :: > 100 µM
16) COc1ccc(OC(=O)CC2Cc3cc(OC)c(OC)c(OC)c3-c3ccc(SC)c(=O)cc32)cc1 (stereo not drawn) :: > 100 µM
17) CN=C(Nc1cccc(C(F)(F)F)c1)SCc1ccc(N=C=S)cc1 :: 28.4 µM
18) COc1ccc(/C=C(\C)[N+](=O)[O-])cc1OC :: 3.2 µM
19) O=C(c1ccco1)N(C(=O)N1CCN(c2ccccc2)CC1)S(=O)(=O)c1ccccc1 :: 53.6 µM
20) Cc1[nH]c(-c2cc(N)ccc2Cl)c2c1C(=O)CCCC2 :: 15.1 µM
21) C[N+](C)(C)c1ncnc2c1ncn2C1CCCO1 (stereo not drawn) :: > 100 µM
22) CCOc1ccc(NC(=O)CCc2nnc(SC)o2)cc1 :: > 100 µM
23) O=[N+]([O-])c1ccc(C(O)(C#CCN2CCCC2)c2ccccc2)cc1 (stereo not drawn) :: > 100 µM
24) O=c1[nH]c2nc3ccccc3c(=O)n2/c1=C/c1ccco1 :: > 100 µM
25) Cc1cc2c(c(C(N)=O)c1C)-c1cc(Cl)cc(Cl)c1C2=O :: > 100 µM
26) Fc1ccc(/C=N/n2c(-c3ccc(F)c(Cl)c3)n[nH]c2=S)cc1 :: 41.5 µM
27) O=C1Cc2c([nH]c3ccc(C(=O)O)cc23)-c2ccccc2N1 :: > 100 µM
28) CC(CO)(Nc1ccc([N+](=O)[O-])cc1[N+](=O)[O-])C(=O)O (stereo not drawn) :: 37.4 µM
29) O=Nc1c(-c2c(O)[nH]c3ncccc23)[nH]c2ccccc12 :: > 100 µM
30) CCN1C(=O)N(CC)C2C1NN=c1s/c(=C\c3ccc(F)cc3)c(=O)n12 (stereo not drawn) :: > 100 µM
31) O=C1NC2CCCCCC2C12CCCCC2 (stereo not drawn) :: > 100 µM
32) C[n+]1c2ccccc2nc2c(N)cc(N)cc21 :: > 100 µM
33) COc1ccc(C(=O)/C=C/c2ccc(OCC#N)cc2)cc1 :: 30.6 µM

Where do these numbers come from? They come from PubChem BioAssay (NCI).
